src = patent US4272437A

- Tested on: S. aureus A9537
- experimental.protocol: In vivo protection of mice, lethal infection with S. aureus A9537
- recorded.conditions: Staphylococcus aureus, A9537, im, IM, 2 treatments, 1 × 10^6 organisms; read-out: PD50
Provide the reported ED50 of each item.
I only need the number, in mg/kg, no unit after it.

Ask: Form field: ED50 recorded for CC1(C)OCC(C(N)C2=C(C(=O)O)N3C(=O)CC3S2)O1 (stereo not shown) [Example 84] with S. aureus A9537 (enter value)
Result: 33

Ask: Form field: ED50 recorded for CCCC(N)C1=C(C(=O)O)N2C(=O)CC2S1 (stereo not shown) [Example 82] with S. aureus A9537 (enter value)
Result: 1.25

Ask: Form field: ED50 recorded for NCCCCC1=C(C(=O)O)N2C(=O)CC2S1 (stereo not shown) [Example 73] with S. aureus A9537 (enter value)
Result: 0.2

Ask: Form field: ED50 recorded for NCCC1=C(C(=O)O)N2C(=O)CC2S1 (stereo not shown) [Example 24, 2-Aminoethylpenem-3-carboxylic Acid] with S. aureus A9537 (enter value)
Result: 0.63

Ask: Form field: ED50 recorded for N[C@H]1C[C@@H](C2=C(C(=O)O)N3C(=O)C[C@H]3S2)C1 [Example 78] with S. aureus A9537 (enter value)
Result: 0.63

Ask: Form field: ED50 recorded for NCCCCCC1=C(C(=O)O)N2C(=O)C[C@H]2S1 [Example 87] with S. aureus A9537 (enter value)
Result: 0.12

Ask: Form field: ED50 recorded for NCCOCC1=C(C(=O)O)N2C(=O)CC2S1 (stereo not shown) [Example 86] with S. aureus A9537 (enter value)
Result: 1.9
